Origin of the recorded values: paper PMC10586084

# ASSAYED_TARGET: hCA IX (Homo sapiens, UniProt Q16790)
# PROTOCOL_TEXT: biochemical
# Assay type: biochemical
# CONDITION_SUMMARY: ratio KI hCA IV / KI hCA IX
A collection of compounds and their measured Selectivity index IV/IX
Just the number, please, no unit after it.

                                   compound                         assayed_target  measured_result
0  NS(=O)(=O)c1ccc(Nc2nc3nccc(-c4c(F)cccc4F)n3n2)cc1 [Compound 1i]  hCA IX (Homo sapiens, UniProt Q16790)             32.1
1  NS(=O)(=O)c1ccc(Nc2nc3nccc(-c4ccccc4Cl)n3n2)cc1 [Compound 1m]  hCA IX (Homo sapiens, UniProt Q16790)              438
2  Cc1ccc(-c2ccnc3nc(Nc4ccc(S(N)(=O)=O)cc4)nn23)cc1 [Compound 1t]  hCA IX (Homo sapiens, UniProt Q16790)             55.1

Shifting focus to the compound that follows.
Using the record for NS(=O)(=O)c1ccc(Nc2nc3nccc(-c4ccc([N+](=O)[O-])cc4)n3n2)cc1 [Compound 1q] , report its Selectivity index IV/IX.
46.9

====

# ASSAYED_TARGET: hCA IX (Homo sapiens)
Quick rule for you: Ki under 30 nM gets label 1, anything else gets label 0.

Find out if reported Ki for COc1ccc(-c2ccnc3nc(Nc4ccc(S(N)(=O)=O)cc4)nn23)cc1 [Compound 1w] is less than 30 nM
label 0

Find out if reported Ki for NS(=O)(=O)c1ccc(Nc2nc3nccc(-c4ccc(Cl)cc4)n3n2)cc1 [Compound 1k] is less than 30 nM
label 0

Find out if reported Ki for NS(=O)(=O)c1ccc(Nc2nc3nccc(-c4c(F)ccc(F)c4F)n3n2)cc1 [Compound 1j] is less than 30 nM
label 1

Find out if reported Ki for Cc1ccccc1-c1ccnc2nc(Nc3ccc(S(N)(=O)=O)cc3)nn12 [Compound 1v] is less than 30 nM
label 1

Find out if reported Ki for NS(=O)(=O)c1ccc(Nc2nc3nccc(-c4c(F)cccc4F)n3n2)cc1 [Compound 1i] is less than 30 nM
label 1

====

Observed pKi for hCA IX (Homo sapiens), reported per entry below.
In simple prose, pKi is minus the logarithm base ten of a concentration in moles per litre.

Examples from the recorded data:
                                   compound         assayed_target  measured_result
0  COc1cccc(-c2ccnc3nc(Nc4ccc(S(N)(=O)=O)cc4)nn23)c1 [Compound 1x]  hCA IX (Homo sapiens)             8.29
1  COc1cc(OC)cc(-c2ccnc3nc(Nc4ccc(S(N)(=O)=O)cc4)nn23)c1 [Compound 1aa]  hCA IX (Homo sapiens)             7.33
2  NS(=O)(=O)c1ccc(Nc2nc3nccc(-c4ccccc4[N+](=O)[O-])n3n2)cc1 [Compound 1s]  hCA IX (Homo sapiens)             7.69
3  NS(=O)(=O)c1ccc(Nc2nc3nccc(-c4ccc(I)cc4)n3n2)cc1 [Compound 1p]  hCA IX (Homo sapiens)             7.02
4  NS(=O)(=O)c1ccc(Nc2nc3nccc(-c4ccc([N+](=O)[O-])cc4)n3n2)cc1 [Compound 1q]  hCA IX (Homo sapiens)             7.16

Using the record for COc1ccc(-c2ccnc3nc(Nc4ccc(S(N)(=O)=O)cc4)nn23)cc1OC [Compound 1ab] , report its pKi.
7.45

Using the record for Cc1cccc(-c2ccnc3nc(Nc4ccc(S(N)(=O)=O)cc4)nn23)c1 [Compound 1u] , report its pKi.
7.58

Using the record for NS(=O)(=O)c1ccc(Nc2nc3nccc(-c4ccc(Br)cc4)n3n2)cc1 [Compound 1n] , report its pKi.
7.28

Using the record for NS(=O)(=O)c1ccc(Nc2nc3nccc(-c4ccccc4F)n3n2)cc1 [Compound 1h] , report its pKi.
7.71

Using the record for COc1ccccc1-c1ccnc2nc(Nc3ccc(S(N)(=O)=O)cc3)nn12 [Compound 1y] , report its pKi.
7.96

Using the record for CCOc1ccc(-c2ccnc3nc(Nc4ccc(S(N)(=O)=O)cc4)nn23)cc1 [Compound 1z] , report its pKi.
7.36

Using the record for NS(=O)(=O)c1ccc(Nc2nc3nccc(-c4cccc(Br)c4)n3n2)cc1 [Compound 1o] , report its pKi.
7.42

Using the record for NS(=O)(=O)c1ccc(Nc2nc3nccc(-c4ccc(F)cc4)n3n2)cc1 [Compound 1f] , report its pKi.
7.54

Using the record for NS(=O)(=O)c1ccc(Nc2nc3nccc(-c4cccnc4)n3n2)cc1 [Compound 1d] , report its pKi.
8.29

Using the record for NS(=O)(=O)c1ccc(Nc2nc3nccc(-c4cccc(F)c4)n3n2)cc1 [Compound 1g] , report its pKi.
7.65
